Molecular target: T1, CD3ε homodimer protein (human, UniProt P07766 23-126, limits assumed, sulfo-tag or biotin label in some ECL assays)
T1 construct: also called human CD3ε homodimer protein; CD3 (CD3ε)
T1 sequence (P07766 23-126 limits assumed): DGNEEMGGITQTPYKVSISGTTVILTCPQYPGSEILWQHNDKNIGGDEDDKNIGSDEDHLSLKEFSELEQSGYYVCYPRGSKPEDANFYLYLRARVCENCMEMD
Test: SPR, CD3ε homodimer on chip;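 further: biacore SPR with antibody variants flowed as analyte over amine-coupled CD3ε homodimer on a CM chip, bound amount of each single-residue H chain variant over that of parent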
Each item that follows carries a reported ratio of amounts bound vs CE115HA000.
Answer with a bare number; do not write a unit.

>  <binder>
CE115HA000 D101M (antibody, name in Kabat numbering, V domains shown) VH: QVQLVESGGGVVQPGRSLRLSCAASGFTFSNAWMHWVRQAPGKGLEWVAQIKAKSNNYATYYAESVKGRFTISRDDSKNSLYLQMNSLKTEDTAVYYCRYVHYGAYYGVMAWGQGTTVTVSS VL: DIVMTQSPLSLPVTPGEPASISCRSSQSLVHSNRNTYLHWYQQKPGQAPRLLIYKVSNRFSGVPDRFSGSGSGTDFTLKISRVEAEDVGVYYCGQGTQVPYTFGQGTKLEIK

>  <ratio of amounts bound vs CE115HA000>
1.2

$$$$
>  <binder>
CE115HA000 N53A (antibody, name in Kabat numbering, V domains shown) VH: QVQLVESGGGVVQPGRSLRLSCAASGFTFSNAWMHWVRQAPGKGLEWVAQIKAKSANYATYYAESVKGRFTISRDDSKNSLYLQMNSLKTEDTAVYYCRYVHYGAYYGVDAWGQGTTVTVSS VL: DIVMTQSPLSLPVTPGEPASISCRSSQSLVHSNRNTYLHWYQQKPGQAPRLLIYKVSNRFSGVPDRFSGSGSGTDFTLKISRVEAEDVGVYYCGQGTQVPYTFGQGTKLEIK

>  <ratio of amounts bound vs CE115HA000>
0.7

$$$$

Now consider a different binder.
Data request: Data request, read-out ratio of amounts bound vs CE115HA000, for CE115HA000 Y100A (antibody, name in Kabat numbering, V domains shown) VH: QVQLVESGGGVVQPGRSLRLSCAASGFTFSNAWMHWVRQAPGKGLEWVAQIKAKSNNYATYYAESVKGRFTISRDDSKNSLYLQMNSLKTEDTAVYYCRYVHYGAAYGVDAWGQGTTVTVSS VL: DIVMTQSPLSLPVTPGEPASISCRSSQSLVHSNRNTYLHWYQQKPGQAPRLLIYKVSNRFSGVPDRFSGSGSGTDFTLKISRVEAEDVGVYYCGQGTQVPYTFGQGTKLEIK
Data returned: 9.9
